# ASSAY_METHOD_TEXT: inhibitors of mutant huntingtin aggregation, primary screen, imaging, exon1htt(103Q)mCFP cells, high-content imaging (AID 483);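 also: compound exposure lasted 3 days before fixation; percent of the per-plate median nuclei count of sample wells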
# CONDITIONS_USED: exon1htt(103Q)mCFP cell line, aggregate imaging, at 2 µM; measured here: cell count, toxicity
MEASURED_ATTRIBUTE: nuclei count (%)
// return numeric value only (unit: %, not printed)

Query block: I have this compound here, `CC(=O)Oc1cc(C(C)C)c(OCCN(C)C)cc1C` , and I need its recorded nuclei count.
Result block: 95.3

Query block: Item: COc1ccccc1NC(=O)C1=C(C)NC(SCC(=O)c2ccc(C)cc2)=C(C#N)C1c1ccco1 (configuration not stated)
Result block: 99.4

Query block: Item: `COC(=O)CCC(=O)CN`
Result block: 95.2

Query block: Item: `CCCCCn1c2nc3ccccc3nc2c2c(=O)n(CC(C)C)cnc21`
Result block: 105

Query block: Item: `C(=C\c1ccccc1)/CN1CCN(C(c2ccccc2)c2ccccc2)CC1`
Result block: 107

Query block: Item: `CC(=O)NS(=O)(=O)c1ccc(N)cc1`
Result block: 97.6

Query block: Item: CC(C[N+](C)(C)C)OC(N)=O (configuration not stated)
Result block: 106

* * *

Provide the reported z-score of each item.
# ASSAY_METHOD_TEXT: DUSP6 inhibitors restoring Erk phosphorylation by chemical complementation, primary imaging in DUSP6-transfected HeLa (AID 609)
# CONDITIONS_USED: HeLa MKP-3 transfected, phospho-Erk imaging KS statistic; measured here: nuclear pErk red intensity z-score; at 10 µM; stronger effect = higher value; cells stimulated with TPA for 15 min
// keep it numeric: no unit symbol after the value

Query block: I have this compound here, CCN(CC)CCN1C(=O)C(O)=C(C(=O)c2cccs2)C1c1ccccn1 (configuration not stated) , and I need its recorded z-score.
Result block: -1.67

Query block: Item: `COc1ccc(C=NCCCN2CCOCC2)cc1`
Result block: 1.46

Query block: Item: `Cc1cc(NS(=O)(=O)c2ccc(N)cc2)no1`
Result block: 1.11

Query block: Item: Cc1cccc(N(CC(O)CN(C)C)S(=O)(=O)c2ccccc2)c1 (configuration not stated)
Result block: 0.694

Query block: Item: `O=c1oc2cc(O)ccc2c2oc3cc(O)ccc3c12`
Result block: -1.32

Query block: Item: `CC(=Nc1cccc(O)c1)c1sc2ccccc2c1O`
Result block: -1.52

Query block: Item: CN1C2C=C3C(C#N)=C(N)C(C#N)(C#N)[C@@H](c4ccsc4)[C@@H]3C1CC2 (some centres not stated)
Result block: -0.0532

Query block: Item: `CCc1c(C)c(C#N)c2nc3ccccc3n2c1-n1nc(C)cc1C`
Result block: -0.335

Query block: Item: `CN(C)/C=C1\N=C(c2ccc(Cl)cc2Cl)OC1=O`
Result block: -0.794

Query block: Item: C1CCC(C(CC2CCCCN2)C2CCCCC2)CC1 (configuration not stated)
Result block: 0.659

Query block: Item: `c1ccc2[nH]c(-c3cscn3)nc2c1`
Result block: -0.292

Query block: Item: Cc1ccc(C2C3CN(C(C)C)CC=C3C(C#N)=C(N)C2(C#N)C#N)cc1 (configuration not stated)
Result block: 0.446

* * *

# ASSAY_METHOD_TEXT: inhibitors of Chlamydomonas gravitaxis, primary screen, whole organism, Chlamydomonas reinhardtii, WT vs cilia-less mutant, absorbance, 96-well (AID 463189);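 also: 0% = wild type cc124 cells in DMSO and 100% = ciliumless bld1 mutant cells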
# CONDITIONS_USED: OD600 absorbance, 2 days, at 10 µM
Calls of active or inactive are those of the source.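 Rule for the calls: active = inhibition at or above 50% relative to wild type and mutant plate controls; inactive = inhibition below 50%.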
Select the matching outcome among true (1) = active, false (0) = inactive

Query block: Hello, I am checking results. What call was entered for `C[C@]12C=CC(=O)C=C1CC[C@@H]1[C@@H]2[C@@H](O)C[C@@]2(C)[C@H]1CC[C@]2(O)C(=O)COC(=O)CCC(=O)O` ?
Result block: false (0)

Query block: Item: CCC(=O)OC1=C2C(=Nc3c(c(=O)n(C)c(=O)n3C)C2c2ccccc2)c2ccccc21 (stereo unspecified)
Result block: false (0)

Query block: Item: CC[C@]1(O)CC2CN(CCc3c([nH]c4ccccc34)[C@@](C(=O)OC)(c3cc4c(cc3OC)N(C=O)[C@H]3[C@@](O)(C(=O)OC)[C@H](OC(C)=O)[C@]5(CC)C=CCN6CC[C@]43[C@@H]65)C2)C1 (stereo partly specified)
Result block: false (0)

Query block: Item: `COc1ccc(Cn2c(O)cc(=O)[nH]c2=O)cc1`
Result block: false (0)

Query block: Item: `Cc1cc(=O)n2[nH]cnc2n1`
Result block: false (0)

Query block: Item: `CCN(CCCc1ccccc1)CCCc1ccccc1`
Result block: true (1)

Query block: Item: `CC1(C)Cc2c(sc3nc4n(c(=O)c23)CCC4)CO1`
Result block: false (0)

Query block: Item: CC1CN(C2CCN(C(=O)c3ccccc3Cl)CC2)CC(C)O1 (stereo unspecified)
Result block: false (0)

Query block: Item: `CCCCCNC(=O)c1c(N)n(/N=C/c2ccco2)c2nc3ccccc3nc12`
Result block: false (0)

Query block: Item: CCN1CC2=C(OC(N)=C(C#N)C2c2ccccc2)/C(=C\c2ccccc2)C1 (stereo unspecified)
Result block: false (0)

Query block: Item: CC1(C)CC(N(Cc2ccco2)C(=O)Cc2ccccc2)CCO1 (stereo unspecified)
Result block: false (0)

* * *

Provide the reported inhibition of each item.
# ASSAY_METHOD_TEXT: inhibitors of Chlamydomonas gravitaxis, primary screen, whole organism, Chlamydomonas reinhardtii, WT vs cilia-less mutant, absorbance, 96-well (AID 463189);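 also: 0% = wild type cc124 cells in DMSO and 100% = ciliumless bld1 mutant cells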
# CONDITIONS_USED: OD600 absorbance, 2 days, at 10 µM, stronger effect = higher value
// return numeric value only (unit: %, not printed)

Query block: I have this molecule here, `COc1ccc(-c2oc3ncn4nc(COc5ccccc5)nc4c3c2-c2ccc(OC)cc2)cc1` , and I need its recorded inhibition.
Result block: -3.79

Query block: Item: `CN1C(=O)C2(N=c3ccccc3=N2)c2ccccc21`
Result block: 9.55

Query block: Item: COc1cccc(C2C(C(=O)c3cccs3)=C(O)C(=O)N2c2cc(C)on2)c1 (stereo unspecified)
Result block: -2.3

Query block: Item: `c1ccc(-c2nnc(OCCN3CCOCC3)c3ccccc23)cc1`
Result block: -11.2

Query block: Item: `CCCCCCc1cc2cc(-c3nnc(-c4ccccc4O)o3)c(=O)oc2cc1O`
Result block: 13.3

Query block: Item: `O=S(=O)(c1ccccc1)N1CCC(N2CCN(c3ccccc3)CC2)CC1`
Result block: 1.95

Query block: Item: `Cc1cc(C)c(-n2c(O)c(C=NCCN3CCOCC3)c(=O)[nH]c2=O)c(C)c1`
Result block: 0.886

Query block: Item: `COc1ccccc1-c1cc(-c2cc(Cl)ccc2O)n[nH]1`
Result block: -19.8

Query block: Item: `c1coc(-c2nnc3sc(C4CCCCC4)nn23)c1`
Result block: 77.6

Query block: Item: `Cc1c(OCc2ccccc2)c(=O)ccn1Cc1ccccc1`
Result block: -5.81

Query block: Item: Cc1ccc(C2/C(=C(\O)c3cnn(-c4ccccc4)c3C)C(=O)C(=O)N2CCN(C)C)o1 (stereo unspecified)
Result block: -22.8

* * *

Provide the reported inhibition of each item.
# ASSAY_METHOD_TEXT: inhibitors of TNFa-induced NFkB p65 translocation, primary screen, imaging, HUVEC, MLSMR starter and 10KST1 sets (AID 438);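 also: compound added about 3h40 before a 20 min TNFalpha stimulation; signal is the nuclear over cytoplasmic p65 intensity ratio per well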
# CONDITIONS_USED: HUVEC TNFa-induced p65 nuclear translocation; at 2 µM, stronger effect = higher value, 0% TNFa-plus-vehicle, 100% no-TNFa wells
// return numeric value only (unit: %, not printed)

Query block: I have this compound here, `Cc1cccc(OCc2nc(C)cc(=O)[nH]2)c1` , and I need its recorded inhibition.
Result block: -7.7

Query block: Item: CCOC(=O)C1(c2nc(N)cs2)COC(=O)C1 (configuration not stated)
Result block: -7.1

Query block: Item: `CNC[C@H](O)c1cccc(O)c1`
Result block: 0.6

Query block: Item: `CC(C)Cc1nc2n[nH]c(N)c2c2c1CCC2`
Result block: -3.7

Query block: Item: CCC1(C)Cc2c(sc3c2c(=O)n(C)c2nnc(SCC(=O)c4ccc(Cl)cc4)n32)CO1 (configuration not stated)
Result block: -2.6

Query block: Item: `O=C(CSc1nnc(-c2ccccc2)c(-c2ccccc2)n1)N1CCOCC1`
Result block: -6.9

Query block: Item: CN1CCc2c(sc3c2C(=O)NC(c2ccco2)N3)C1 (configuration not stated)
Result block: -12

Query block: Item: `CCCCc1c(C)c2ccc(OCC(C)=O)cc2oc1=O`
Result block: -10

Query block: Item: `OCCN(CCO)c1ncnc2c1sc1nc(N3CCOCC3)c3c(c12)CCCC3`
Result block: -26.4

Query block: Item: Cc1ccc(N(CC(=O)O)C2SC(=O)NC2=O)cc1 (configuration not stated)
Result block: -12.4

Query block: Item: `CCOC(=O)c1[nH]c2ccc(Br)cc2c1NC(=O)CNC`
Result block: 5.1

Query block: Item: CCOC(=O)C1=C(CSc2nc(-c3ccncc3)ccc2C#N)OC(N)=C(C#N)C1c1cccnc1 (configuration not stated)
Result block: -10.4
